Cited source for all entries: paper PMC4403932

target or system: BRD4(2) (Homo sapiens)
Construct: made in house
protocol details: Protein stability (thermal) shift assay, BRD4(2)
Format: binding
particulars: compound 10 μM, protein 2 μM; average of triplicate
metric name: ΔTm at 10 µM (°C)

The cases that follow already have their ΔTm at 10 µM on record.
                               given_smiles  number
0  COCCc1ccc(OCc2ccc(-c3nc(N)nc4[nH]cnc34)cc2)cc1    -2.8
1         COc1ccc(F)cc1-c1nc(O)nc2[nH]cnc12     0.7
2    COc1ccc(Br)cc1-c1nc(N)nc2c1ncn2CC(C)=O  -0.431
3     CCCCOc1cc(Br)cc(-c2nc(N)nc3c2ncn3C)c1   0.373
4  COc1cc(COc2ccc(-c3nc(N)nc4[nH]cnc34)cc2Cl)cc(OC)c1    -2.9

a = COc1ccc(Cl)cc1-c1nc(O)nc2[nH]cnc12
b = COc1ccc(-c2nc(N)nc3c2ncn3C)cc1
### Prompt // compare measured ΔTm at 10 µM between a and b ; output the lower one Which one? Tell me its label.
### Response b

====

target or system: BRD3(2) (Homo sapiens, UniProt Q15059)
Construct: made in house
Sequence (Q15059 306-415 limits assumed): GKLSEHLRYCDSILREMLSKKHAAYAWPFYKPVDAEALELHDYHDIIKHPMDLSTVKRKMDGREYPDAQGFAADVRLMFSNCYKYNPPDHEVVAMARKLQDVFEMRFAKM
protocol details: Protein stability (thermal) shift assay, BRD3(2)
Type: binding
particulars: compound 10 μM, protein 2 μM; average of triplicate
Method: Thermal melting experiments were carried out using an Mx3005p real time PCR machine (Stratagene). Proteins were buffered in 10 mM HEPES, pH 7.5, 500 mM NaCl and assayed in a 96-well plate at a final concentration of 2 μM in 20 μL volume. […] SYPRO Orange (Molecular Probes) was added as a fluorescence probe at a dilution of 1 in 1000. […] The temperature was raised with a step of 3 °C per minute from 25 to 96 °C, and fluorescence readings were taken at each interval. […]
metric name: ΔTm at 10 µM (°C)

I = COc1cc(COc2ccc(-c3nc(N)nc4[nH]cnc34)cc2Cl)cc(OC)c1
II = Nc1nc(-c2ccc(OCc3ccccc3)cc2)c2nc[nH]c2n1
III = Cn1cnc2c(-c3ccc(Oc4ccccc4)cc3)nc(N)nc21
IV = CCCCOc1cc(Br)cc(-c2nc(N)nc3[nH]cnc23)c1
### Prompt Parameters: sort_by = ΔTm at 10 µM; order = desc; input = items above. Ranked list of labels, please, in the requested order.
### Response II, IV, III, I
(II: 4.2 °C, IV: 1.5 °C, III: 0.8 °C, I: -0.379 °C)

====

target or system: BRDT(2) (Homo sapiens, UniProt Q58F21)
Construct: made in house
protocol details: Protein stability (thermal) shift assay, BRDT(2)
Type: binding
particulars: compound 10 μM, protein 2 μM; average of triplicate; read-out: ΔTm Shift, BRDT(2)
metric name: ΔTm at 10 µM (°C)

Below are worked cases with known answers.
                               given_smiles  readout_units  number
0  Nc1nc(-c2ccc(OCc3ccccc3)cc2)c2nc[nH]c2n1             °C     3.2
1          COc1ccc(-c2nc(N)nc3[nH]cnc23)cc1             °C  -0.167

I = COc1ccc(-c2nc(N)nc3c2ncn3C)cc1
II = Cn1cnc2c(-c3ccc(Oc4ccccc4)cc3)nc(N)nc21
### Prompt Compare ΔTm at 10 µM: is it lower for I or for II ? Response format: the label of the selected entry.
### Response I

1 = Cn1cnc2c(-c3cccc(OCc4ccc(Cl)cc4)c3)nc(N)nc21
2 = COc1ccc(Cl)cc1-c1nc(O)nc2[nH]cnc12
### Prompt Just tell me: smaller ΔTm at 10 µM value, 1 or 2 ? Answer = label.
### Response 1
(1: -0.163 °C, 2: 1.8 °C)

====

target or system: PB1(5) (Homo sapiens, UniProt Q86U86)
Construct: made in house
Sequence (Q86U86 653-763 limits assumed): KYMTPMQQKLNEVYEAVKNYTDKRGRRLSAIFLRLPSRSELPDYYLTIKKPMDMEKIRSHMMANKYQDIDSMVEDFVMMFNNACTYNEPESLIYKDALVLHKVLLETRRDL
protocol details: Protein stability (thermal) shift assay, PB1(5)
Format: binding
particulars: compound 10 μM, protein 2 μM; average of triplicate
metric name: ΔTm at 10 µM (°C)

>>> print(df.to_string())
                               given_smiles   metric_name  number
0  COCCc1ccc(OCc2ccc(-c3nc(N)nc4[nH]cnc34)cc2)cc1  ΔTm at 10 µM     0.5
1     CCCCOc1cc(Br)cc(-c2nc(N)nc3c2ncn3C)c1  ΔTm at 10 µM     0.5
2         COc1ccc(F)cc1-c1nc(O)nc2[nH]cnc12  ΔTm at 10 µM   0.564

====

target or system: BRD4(2) (Homo sapiens, UniProt O60885)
Construct: made in house
protocol details: Protein stability (thermal) shift assay, BRD4(2)
Assay type: binding
particulars: compound 10 μM, protein 2 μM; average of triplicate
Protocol: Thermal melting experiments were carried out using an Mx3005p real time PCR machine (Stratagene). Proteins were buffered in 10 mM HEPES, pH 7.5, 500 mM NaCl and assayed in a 96-well plate at a final concentration of 2 μM in 20 μL volume. […] SYPRO Orange (Molecular Probes) was added as a fluorescence probe at a dilution of 1 in 1000. […] The temperature was raised with a step of 3 °C per minute from 25 to 96 °C, and fluorescence readings were taken at each interval. […]
metric name: ΔTm at 10 µM (°C)

In [3]: df
Out[3]:
                              given_smiles   metric_name  number
0  Nc1nc(-c2ccc(Oc3ccccc3)cc2)c2nc[nH]c2n1  ΔTm at 10 µM     0.5

1 = COc1cccc(OCC(C)C)c1-c1nc(N)nc2[nH]cnc12
2 = Nc1nc(-c2ccc3c(c2)OCCO3)c2nc[nH]c2n1
3 = Cn1cnc2c(-c3cccc(OCc4ccc(Cl)cc4)c3)nc(N)nc21
4 = Nc1nc(-c2ccc(COc3cccc(C(F)(F)F)c3)cc2)c2nc[nH]c2n1
### Prompt Put the entries in order of ΔTm at 10 µM, starting with the largest number. Record the ranking as a list of labels in the requested order.
### Response 1, 3, 2, 4
(1: 0.4 °C, 3: 0.2 °C, 2: -1.3 °C, 4: -7.9 °C)
